# measurement target: Human EphA2 (ephrin receptor A2) on cells (human, UniProt P29317 25-976)
# Sequence (P29317 25-976): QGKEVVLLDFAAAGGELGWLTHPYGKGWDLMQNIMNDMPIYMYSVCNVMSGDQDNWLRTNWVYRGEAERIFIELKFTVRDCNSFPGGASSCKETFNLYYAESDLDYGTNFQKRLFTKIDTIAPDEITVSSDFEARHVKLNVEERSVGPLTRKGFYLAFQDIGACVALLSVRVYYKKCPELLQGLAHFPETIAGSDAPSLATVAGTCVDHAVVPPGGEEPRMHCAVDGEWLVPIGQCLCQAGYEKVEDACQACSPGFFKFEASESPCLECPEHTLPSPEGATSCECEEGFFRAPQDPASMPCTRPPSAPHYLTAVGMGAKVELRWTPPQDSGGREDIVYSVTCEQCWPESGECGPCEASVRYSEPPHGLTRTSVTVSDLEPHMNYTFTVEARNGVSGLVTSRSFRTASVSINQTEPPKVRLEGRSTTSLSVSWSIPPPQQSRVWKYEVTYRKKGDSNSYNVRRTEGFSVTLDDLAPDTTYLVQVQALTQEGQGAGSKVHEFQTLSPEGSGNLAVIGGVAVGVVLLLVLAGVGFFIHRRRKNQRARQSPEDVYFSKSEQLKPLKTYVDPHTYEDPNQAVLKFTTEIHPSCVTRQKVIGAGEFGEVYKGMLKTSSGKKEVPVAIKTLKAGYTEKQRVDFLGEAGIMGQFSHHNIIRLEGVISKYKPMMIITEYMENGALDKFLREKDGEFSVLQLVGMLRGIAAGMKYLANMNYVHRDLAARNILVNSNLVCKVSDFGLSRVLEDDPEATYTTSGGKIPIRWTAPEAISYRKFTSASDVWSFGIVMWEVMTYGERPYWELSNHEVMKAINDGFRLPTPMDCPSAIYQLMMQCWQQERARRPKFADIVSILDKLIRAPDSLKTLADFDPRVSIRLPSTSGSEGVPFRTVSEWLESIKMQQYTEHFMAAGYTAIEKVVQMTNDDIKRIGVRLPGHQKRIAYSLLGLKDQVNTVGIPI
# method: flow cytometry on A549 cells
For each record, write down the corresponding Flow Delta.

Request: Reported Flow Delta, binder AB-009812 (antibody, mouse IgG2a, V domains shown) VH: QVQLQQWGAGLLKPSETLSLTCAVYGGSFSDYYWSWIRQPPGKGLEWIGEVNHSGSINYNNYNPSLKSRVTISVDPSKNQFSLKLTSVTAADTAVYYCAKPLRPHCTNGVCYSGDAFDIWGQGTMVTVAS VL: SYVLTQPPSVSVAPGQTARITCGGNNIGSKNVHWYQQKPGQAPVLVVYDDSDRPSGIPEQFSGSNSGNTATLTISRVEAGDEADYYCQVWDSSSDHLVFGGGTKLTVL : ____
Result: 568000

Request: Requested field: Flow Delta. Item: AB-009815 (antibody, mouse IgG2a, V domains shown) VH: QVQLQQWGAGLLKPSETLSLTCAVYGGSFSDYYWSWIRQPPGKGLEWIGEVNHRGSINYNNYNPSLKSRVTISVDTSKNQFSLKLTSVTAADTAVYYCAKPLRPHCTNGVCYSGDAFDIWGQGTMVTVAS VL: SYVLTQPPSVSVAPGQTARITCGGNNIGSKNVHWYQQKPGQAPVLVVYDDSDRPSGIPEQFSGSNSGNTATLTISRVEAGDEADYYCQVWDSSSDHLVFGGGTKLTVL
Result: 745000

Request: Quick one: Flow Delta for AB-009817 (antibody, mouse IgG2a, V domains shown) VH: QVQLQQWGAGLLKPSETLSLTCAVYGGSFSDYYWSWIRQPPGKGLEWIGEVNHRGSINYNNYNPSLKSRVTISVDPSKNQFSLKLTSVTAADTAVYYCAKPLRPHCTNAVCYSGDAFDIWGQGTMVTVAS VL: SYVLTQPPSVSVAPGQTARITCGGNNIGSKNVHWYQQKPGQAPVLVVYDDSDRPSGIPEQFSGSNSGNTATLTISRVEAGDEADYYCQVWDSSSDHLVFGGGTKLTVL ?
Result: 0
